Conditions: 303.15 K; 93.2 kPa; Liquid; Frequency=3 MHz; Sing-around technique in a fixed-path interferometer
readoutName: speed of sound (m/s)

1) CCCCO [butan-1-ol] ... 1222.8
2) CCO [ethanol] ... 1126.8
3) CCCCCO [pentan-1-ol] ... 1258.8
4) CCCC(=O)[O-].CCCC[NH3+] [n-butylammonium butanoate] ... 1390.4
5) CO [methanol] ... 1086
6) CCCO [propan-1-ol] ... 1188.6

###

Conditions: 313.15 K; 93.2 kPa; Liquid; Frequency=3 MHz; Sing-around technique in a fixed-path interferometer
readoutName: speed of sound (m/s)

1) CCCC(=O)[O-].CCCC[NH3+] [n-butylammonium butanoate] ... 1353.6
2) CCO ... 1093.1
3) CO ... 1053.6
4) CCCO ... 1154.9
5) CCCCO ... 1189.5
6) CCCCCO ... 1225.5

###

Conditions: 313.15 K; 93.2 kPa; Liquid; Vibrating tube method
readoutName: mass density (kg/m3)

1) CCCCO [butan-1-ol] ... 794.103
2) CCCCCO [pentan-1-ol] ... 799.99
3) CCCO [propan-1-ol] ... 787.407
